- TEST TARGET: Sulfhydryl oxidase 1 (Homo sapiens)
- TEST NAME: inhibition of human sulfhydryl oxidase QSOX1 – biochemical, HyperBlu H2O2 luminescence, HTS, primary screen (AID 1347420); note: values above 100% were filed as inconclusive
- CONDITION NOTES: recombinant QSOX1, HyperBlu H2O2 luminescence; at 12.5 µM; hits give high values; active = any value above zero
The campaign covered roughly 1,300 compounds. About 980 (75%) were called active. Roughly 4% stayed inconclusive and do not appear here. The list shows a part of the results.
Outcomes you can answer with include only these: active, inactive

Worked examples, 8 molecules total:
INSERT INTO measurements (molecule, class_label) VALUES
  ('Nc1ccn([C@H]2CC[C@@H](CO)O2)c(=O)n1', 'active'),
  ('NS(=O)(=O)C#Cc1ccccc1', 'active'),
  ('COC(=O)C1=C(C)NC(C)=C(C(=O)OC)C1c1ccccc1[N+](=O)[O-]', 'active'),
  ('NC1(C(=O)O)CC1', 'active'),
  ('NCCNS(=O)(=O)c1cccc2c(Cl)cccc12', 'active'),
  ('CCCC(C(=O)OCCN(CC)CC)(c1ccccc1)c1ccccc1', 'active'),
  ('Cc1ccc(C(=O)Nc2ccc(S(=O)(=O)[O-])c3c2C(S(=O)(=O)[O-])=[C+]C(S(=O)(=O)O)=[C+]3)cc1NC(=O)c1cccc(NC(=O)Nc2cccc(C(=O)Nc3cc(C(=O)Nc4ccc(S(=O)(=O)[O-])c5c4C(S(=O)(=O)[O-])=[C+]C(S(=O)(=O)O)=[C+]5)ccc3C)c2)c1', 'active'),
  ('O=C(O)c1cccnc1C(=O)O', 'active');

Query: recorded result category for CCCCCCCC/C=C\CCCCCCCC(=O)NCCc1ccc(O)c(O)c1 in this test
active

Assay outcome for CCCCc1oc2ccccc2c1C(=O)c1cc(I)c(OCCN(CC)CC)c(I)c1 : what was it?
active

Recorded test call requested for CCCNCC(O)COc1ccccc1C(=O)CCc1ccccc1 (stereo not given)
active

Name the outcome recorded for Cn1ccc2cc3c(cc21)CCN3C(=O)Nc1cccnc1 in the assay.
inactive

Kindly provide the recorded test outcome for the following molecule: C[C@]12CC[C@@H]3c4ccc(O)cc4CC[C@H]3[C@@H]1CC[C@@H]2O
active

What call does the record list for COC(=O)C1=CO[C@@H](O)[C@@H]2C(CO)=CC[C@H]12 ?
active

Field: outcome | Entry: O=C1c2ccccc2C(=O)c2c(NCCc3ccc(O)cc3)ccc(NCCc3ccc(O)cc3)c21
active
